Ref: the supplement of paper PMC13380429

Tested on: U2OS
Assay: cell viability relative to DMSO; higher = less toxic
Conditions: 72 h; 10000 nM
OBSERVED PROPERTY: cell viability (%)
Give the value, in units of %, as a plain number.

COc1cc(C#N)ccc1S(=O)(=O)Nc1ccc2c(c1)cc(C)c(=O)n2C : 98.9
COC(=O)c1ccccc1NC(=O)c1ccc(F)cc1 [EXO-1] : 98.8
COc1cc(-c2ncn(/C=C\C(=O)OC(C)C)n2)cc(C(F)(F)F)c1 : 4.1
COc1cc(O)c(C(=O)c2ccccc2)cc1S(=O)(=O)O : 98.7
O=S(=O)(NCCCCCCc1ccccc1)c1cccc2c(Cl)cccc12 : 99.5

What does the record list as cell viability for Cn1c(NCCN(CCO)CCCc2ccc([N+](=O)[O-])cc2)cc(=O)n(C)c1=O ?
99.4

Quick one: cell viability for O=c1[nH]c(=O)n([C@H]2C[C@H](O)[C@@H](CO)O2)cc1I ?
99.6

Dear colleague, I am looking for the recorded cell viability of the following molecule: CN(Cc1ccccc1)C(=O)[C@H](Cc1ccc2ccccc2c1)NC(=O)[C@@H]1CCCN1C(=O)Nc1ccccc1[N+](=O)[O-]
87.3

// lookup cell viability for FC(F)(F)c1ccc(CNc2ccc(Cc3c[nH]c4ncccc34)cn2)cc1
96.4

Field request: cell viability | item: O=C1Nc2ccccc2C12OCC1(CO2)COC2(OC1)C(=O)Nc1ccccc12 (centres undefined)
92.5

Request the reported cell viability associated with Cc1cccn2c(=O)c(/C=C(\C#N)c3nc4ccccc4s3)c(Oc3ccc(F)cc3)nc12
99.1

State the recorded cell viability for this entry: O=C(Oc1cc(S(=O)(=O)c2ccccc2)ccc1[N+](=O)[O-])c1ccc(Cl)cc1
96.9

Name the recorded cell viability for Clc1ccc(COC(Cn2ccnc2)c2ccc(Cl)cc2Cl)cc1 (centres undefined) .
90.7

Which cell viability reading was recorded for the molecule CCOC(=O)c1ccc(N2NC(=O)/C(=C/c3ccc([N+](=O)[O-])o3)C2=O)cc1 ?
75.5

Requested read-out: cell viability. Entry: CN(C)CCn1nnnc1SCC1=C(C(=O)O)N2C(=O)[C@@H](NC(=O)Cc3csc(N)n3)[C@H]2SC1
103

Query: cell viability; subject: Cc1cc(O)c2c(=O)c3c(O)cc(O)c4c5c(O)cc(O)c6c(=O)c7c(O)cc(C)c8c1c2c(c34)c(c78)c65
77.1

Recorded cell viability for C/C(=C\c1csc(C)n1)[C@@H]1C[C@@H]2O[C@]2(C)CCC[C@H](C)[C@H](O)[C@@H](C)C(=O)C(C)(C)[C@@H](O)CC(=O)N1 [ixabepilone] , please?
28

Field request: cell viability | item: CN1CCN(C(=O)c2nc3ccc(Cl)cc3[nH]2)CC1
101

// query cell viability value for entry O=C1CN=C(c2cccc(Br)c2)c2oc3ccccc3c2N1
101

Which cell viability is listed for COc1cc(N2CCOCC2)ccc1Nc1ncc(Cl)c(Nc2ccccc2NS(C)(=O)=O)n1 ?
27.4

---

System: Caco-2
Test: cell viability relative to DMSO; higher = less toxic
Details: 72 h; 10000 nM
OBSERVED PROPERTY: cell viability (%)
Answer in %, number only, no unit symbol.

// below: answered compounds
CN(Cc1ccccc1)C(=O)[C@H](Cc1ccc2ccccc2c1)NC(=O)[C@@H]1CCCN1C(=O)Nc1ccccc1[N+](=O)[O-] : 75.1
Cc1ccc([N+](=O)[O-])cc1S(=O)(=O)N(C)C : 99.2
Cc1cc(CC(C)CC(C)(C)C)n(O)c(=O)c1 (stereo not given) : 68
CCCNC(=O)NS(=O)(=O)c1ccc(Cl)cc1 [chlorpropamide] : 95.2

// next item, cell viability requested
cell viability for CCOC(=O)c1ccc(NC2CCCCC2)c(N)c1 ?
86.1
